- Tested on: SNB-75 CNS
- method notes: NCI tumour cell line growth inhibition, 48 h; in the data active = GI50 below about 0.43 µM; inactive = the rest
The categories you may choose from are active, inactive

compound: Cc1ccc([P+](Cc2ccc([N+](=O)[O-])cc2)(c2ccc(C)cc2)c2ccc(C)cc2)cc1
qualitative label: inactive

compound: CCCCCCCCCCCCCCCC[N+]1(CC)CCCC1
qualitative label: active

compound: CCOC(=O)c1[nH]c2c(c1C)-c1[nH]c(=O)c(S(=O)(=O)c3ccccc3)cc1SC2
qualitative label: inactive

compound: N#CC1c2ccccc2-c2ccccc2N1C(=O)c1ccccc1 (stereo not drawn)
qualitative label: inactive

compound: Nc1ncnc2occ(-c3ccc(NC(=O)Nc4cc(C(F)(F)F)cc(C(F)(F)F)c4)cc3)c12
qualitative label: inactive

compound: COC(=O)[C@H](Cc1ccccc1)NC(=O)c1csc([C@@H](C[C@H](C(C)C)N(C)C(=O)[C@@H](NC(=O)[C@H]2CCCCN2C)C2CC2)OC(C)=O)n1
qualitative label: active

compound: COc1cccc(-c2nn(-c3ccccc3)cc2-c2ccnc(NCCNC(=O)Nc3ccc(Cl)c(Cl)c3)c2)c1
qualitative label: inactive

Asked: // param item: `O=C(N[C@@H]1CCCc2ccccc21)[C@H](CCC(=O)N1CCN(C2CCCCC2)CC1)N1C(=O)[C@@H](N2C(=O)OC[C@@H]2c2ccccc2)[C@H]1/C=C/c1ccccc1` ; yields the recorded call
Given back: inactive

* * *

- Test system: MALME-3M melanoma
- method notes: NCI tumour cell line growth inhibition, 48 h
measured endpoint: TGI

molecule: O=C(N[C@@H]1CCCc2ccccc21)[C@H](CCC(=O)N1CCN(C2CCCCC2)CC1)N1C(=O)[C@@H](N2C(=O)OC[C@@H]2c2ccccc2)[C@H]1/C=C/c1ccccc1
TGI: 3.15 µM
--
molecule: COc1cc2ccn3c4cc(OC)c(OC)cc4cc3c2cc1OC
TGI: > 100 µM

Record O=C1c2ccccc2NC2C(O)c3ccccc3N12 (stereo unspecified) , field TGI: > 100 µM

Record `CNc1ccc2nc(-c3ccc(OC(=O)N(C)C)cc3)cn2c1` , field TGI: > 100 µM

Record `NC1=NS(=O)(=O)N=C(N)C1=Cc1ccc([N+](=O)[O-])o1` , field TGI: 29.7 µM

Record `Cc1cc(N(CCC#N)S(=O)(=O)c2ccccc2)ccc1C=O` , field TGI: > 100 µM

Record O=C1c2cc(Cl)ccc2-n2c(noc2=O)C2CSCN12 (stereo unspecified) , field TGI: > 100 µM

Record `CC(=O)N(C(C)=O)n1c(Cc2ccc(Cl)cc2)nn(C(C)=O)c1=O` , field TGI: > 100 µM

* * *

- Tested on: SN12C renal
The categories you may choose from are 1 (yes) (active), 0 (no) (inactive)

compound: COC(=O)[C@H](Cc1ccccc1)NC(=O)c1csc([C@@H](C[C@H](C(C)C)N(C)C(=O)[C@@H](NC(=O)[C@H]2CCCCN2C)C2CC2)OC(C)=O)n1
qualitative label: 1 (yes)

compound: c1ccc2c(c1)nc(NCCN1CCNCC1)c1c3ccccc3[nH]c21
qualitative label: 1 (yes)

compound: COc1cc(C2C3=C(COC3=O)N(CCO)c3cc4c(cc32)CCC4)cc(OC)c1O (centres undefined)
qualitative label: 0 (no)

compound: CC(C)OP(=O)(CP(=O)(OC(C)C)OC(C)C)OC(C)C.[CH3][Sn]([Br])([Br])[Br]
qualitative label: 0 (no)

compound: N#CC1c2ccccc2-c2ccccc2N1C(=O)c1ccccc1 (centres undefined)
qualitative label: 0 (no)

compound: CCN(CC)CCC(=O)Nc1ccc(Cn2nnc3c2C(=O)c2nnn(Cc4ccc(NC(=O)CCN(CC)CC)cc4)c2C3=O)cc1
qualitative label: 1 (yes)

compound: COc1ccc2nc3ccc(OC)cc3c(SCCCN)c2c1
qualitative label: 0 (no)

compound: C/C(=C(/c1ccc(O)cc1)c1ccc(OCCN2CCCC2)cc1)c1ccccc1
qualitative label: 0 (no)

Asked: // param item: COc1ccc(C2=CC(c3cc(OC)c(OC)c(OC)c3)n3ncnc3N2)cc1 (centres undefined) ; yields the recorded call
Given back: 1 (yes)

* * *

- System: SNB-78 CNS
- method notes: NCI tumour cell line growth inhibition, 48 h
measured endpoint: TGI

Solved cases (10 shown):
compound: O=c1c2ccccc2nc(-c2ccccc2)n1NCC1(O)OCC(O)C(O)C1O (stereo unspecified)
measured value: > 100 µM
//
compound: c1ccc(C2=NN3CN(N2)c2ccccc2OCCCOc2ccccc23)cc1
measured value: > 100 µM
//
compound: Cc1ccc(NC(=O)CCC(=O)C2CC(=O)CC/C2=N\NC(=O)c2cc3ccccc3cc2O)cc1C (stereo unspecified)
measured value: > 100 µM
//
compound: COc1ccc([Se]c2ccc(OC)cc2OC)c(OC)c1
measured value: 96.6 µM
//
compound: CC(=O)O[C@]12CCCCCCC1C1(O)C(O)CCC[C@H]12 (stereo partly specified)
measured value: > 100 µM
//
compound: Cc1cc(CS(=O)(=O)/C=C/c2ccccc2[N+](=O)[O-])c(CS(=O)(=O)/C=C/c2ccccc2[N+](=O)[O-])cc1C
measured value: 66.2 µM
//
compound: Brc1ccc2c(c1)C1(c3cc(Br)ccc3-2)c2cc(Br)ccc2-c2ccc(Br)cc21
measured value: > 100 µM
//
compound: N#Cc1c2c(c(N=[N+]=[N-])n3c1nc1ccccc13)CCCC2
measured value: 11.5 µM
//
compound: CCCCN(CCCC)C(=NCc1ccccc1)NC#N
measured value: 70.2 µM
//
compound: COc1ccc(S(=O)(=O)N/N=C/C(=O)O)cc1
measured value: > 1250 µM

Record CCOC(=O)C1C(c2cc(OC)c(O)c(OC)c2)c2cc3c(cc2OC1(C)O)OCO3 (stereo unspecified) , field TGI: > 100 µM

Record C=C1C(=O)O[C@H]2C1[C@H](OC(=O)/C(C)=C\COC(C)=O)C[C@]1(CO1)[C@@H]1[C@H](O)[C@H]3O[C@@]3(C)[C@@H]12 (stereo partly specified) , field TGI: > 73.5 µM

Record `O=CNc1cccc2c3c([nH]c12)CCCCCC3` , field TGI: > 100 µM

* * *

- Test system: UACC-62 melanoma
- method notes: NCI tumour cell line growth inhibition, 48 h
measured endpoint: TGI

Solved cases (6 shown):
compound: O=[N+]([O-])c1ccc2nc3ccc([N+](=O)[O-])cn3c2c1
experimental target: UACC-62 melanoma
TGI: > 100 µM

compound: CC(C)(C)OC(=O)NC(Cc1ccccc1)C(=O)N[C@H]1c2ccsc2/C(=N/O)[C@H]1O (stereo not given in full)
experimental target: UACC-62 melanoma
TGI: > 100 µM

compound: COc1cc2c3c(c1OC)-c1ccccc1C(C(OC(C)=O)c1ccccc1)C3N(C)CC2 (stereo not given)
experimental target: UACC-62 melanoma
TGI: > 100 µM

compound: CC1OC(=O)N(CCCC=C2SCCCS2)C1=O (stereo not given)
experimental target: UACC-62 melanoma
TGI: > 100 µM

compound: Cc1cs/c(=N\C(P(=O)(O)O)P(=O)(O)O)n1C
experimental target: UACC-62 melanoma
TGI: > 100 µM

compound: O=C(Nc1cccc2nsnc12)c1cc2c(cc1Cl)Sc1nccn1S2(=O)=O
experimental target: UACC-62 melanoma
TGI: 17.6 µM

TGI value, target or system UACC-62 melanoma, for `CCN(CC)c1ccc(C(=C2C=CC(=[N+](CC)CC)C=C2)c2ccc(N(CC)CC)cc2)cc1` : 1.52 µM

TGI value, target or system UACC-62 melanoma, for `COc1cc(C(=O)Nc2nnc(S(N)(=O)=O)s2)cc(OC)c1OC` : > 100 µM

TGI value, target or system UACC-62 melanoma, for `CC(C)(C)n1cc(-c2ccnc(NCCNS(=O)(=O)c3ccc(Br)cc3)c2)c(-c2cccc(O)c2)n1` : 3.08 µM

TGI value, target or system UACC-62 melanoma, for `COC(=O)c1c(C)oc2ccc(OC(C)=O)cc12` : > 100 µM

* * *

- Test system: K-562 leukemia
- method notes: NCI tumour cell line growth inhibition, 48 h
TGI overview

Solved cases (3 shown):
molecule: COc1cc(C(=O)Nc2nnc(S(N)(=O)=O)s2)cc(OC)c1OC
experimental target: K-562 leukemia
TGI: > 100 µM
//
molecule: CC1OC(=O)N(CCCC=C2SCCCS2)C1=O (configuration not stated)
experimental target: K-562 leukemia
TGI: > 100 µM
//
molecule: O=C1C/C(=C\O)C(=O)c2ccccc2N1
experimental target: K-562 leukemia
TGI: > 100 µM

Record `COc1ccc(C(=O)Cc2cc(OC)ccc2OC)cc1` , field TGI: > 100 µM

Record `O=C1c2ccccc2S(=O)(=O)c2ccccc21` , field TGI: > 100 µM

Record `COc1ccccc1Cn1cc2c(c1)-c1oncc1CC2` , field TGI: > 33.5 µM

Record `Cc1ccc2ccccc2c1CC1S(=O)(=O)OCCOS1(=O)=O` , field TGI: 34 µM

Record `O=C(c1cccs1)N(C(=S)N1CCN(c2ccccc2)CC1)c1ccccc1` , field TGI: > 100 µM
